System: white rats with experimental diabetes (alloxan diabetes)
Experiment: Anti-diabetic, hypolipidemic and hypocholesteremic activity, alloxan diabetes model in rats (Example 2)
Assay type: in vivo, rat
Details: in 20 days; compounds 50 mg/kg, metmorphin 200 mg/kg daily
Experimental: The comparison of anti-diabetic action of compounds was carried out using a standard model of alloxan diabetes and metmorphin as a comparative drug. […] The experimental drug doses were selected assuming the expected therapeutic doses for man and previously determined toxic doses (LD50 of studied compounds was approximately 500-1,000 mg/kg). […]
Structures can show the parent of a compound that is named as a salt.
endpoint: β-lipoproteins (g/L)
Form entry: value (g/L) — number only.

Fill in the blank: the reported β-lipoproteins of CCOC(=O)c1c(CSc2ccc3ccccc3c2)n(C)c2cc(Br)c(O)c(CN(C)C)c12 [MC-217, hydrochloride] is ____.
2.1

May I ask what β-lipoproteins has been recorded for CCOC(=O)c1c(CSc2ccccc2)n(C)c2cc(Br)c(O)c(CN(C)C)c12 [MC-200, hydrochloride] ?
2.1

Consider the molecule CCOC(=O)c1c(CN2CCCC2)n(C)c2cc(-c3cccnc3)c(O)cc12 [MC-207] and give its measured β-lipoproteins.
2.1

So what's the measured β-lipoproteins for this one? CCOC(=O)c1c(CN2CCCC2)n(C)c2cc(-c3cccnc3)c3c(c12)CN(C)CO3 [MC-213, trihydrochloride]
2.1
